CONDITIONS: buffer; pH 7.4; 200.0 µM
Listed next: entries and their corresponding solubility kinetic.

Worked cases, solubility kinetic given:
| COMPOUND | solubility kinetic |
| --- | --- |
| COc1ccc(C(=O)NC(=S)SCC(=O)O)cc1 | > 42.8 µg/mL |
| COc1ccc(NCC(=O)N/N=C/C(C)c2ccccc2)cc1 (stereo unspecified) | > 46.7 µg/mL |
| Cc1ccc(-n2c(C)c(C)c3c(NCCCO)ncnc32)cc1 | > 46.6 µg/mL |
| CC(C)(C)C(=O)Nc1cc(NC(=O)C(C)(C)C)cc(C(=O)Nc2c[nH]c(=O)[nH]c2=O)c1 | 45.3 µg/mL |
| COC(=O)c1ccc(C2NC(=O)c3c(sc(C)c3C)N2)cc1 (stereo unspecified) | 14.5 µg/mL |

Lab note: next compound to report on.
[Q] Any idea what solubility kinetic was measured for "COc1ccccc1CCNC(=O)c1ccc2nc[nH]c2c1" ?
[A] > 44.3 µg/mL

====

CONDITIONS: buffer; pH 7.4; 200.0 µM
MEASURE: solubility kinetic

Study these solved cases before continuing.
| MOLECULE | MEASURE | RESULT VALUE |
| --- | --- | --- |
| CCn1c(O)c(C=NCCN2CCOCC2)c(=O)[nH]c1=S | solubility kinetic | > 46.9 µg/mL |
| CC(=O)N1CCc2[nH]c3ccc(C)cc3c2C1 | solubility kinetic | > 34.2 µg/mL |
| CCN(CC)C(=O)COC(=O)C1=NN(c2cc(C)ccc2C)C(=O)CC1 | solubility kinetic | > 53.9 µg/mL |
| CC(=O)N1N=C2C3CCN(CC3)C2C1c1ccc(F)cc1 (stereo unspecified) | solubility kinetic | > 43.1 µg/mL |
| COc1ccc(NC(=O)CCC(=O)c2ccc(C(C)C)cc2)cc1 | solubility kinetic | < 0.7 µg/mL |

[Q] I'd like to know its solubility kinetic. The molecule in question is "Cc1ccc(C)c(N2CCN(c3ccc([N+](=O)[O-])cn3)CC2)c1"
[A] < 0.2 µg/mL

[Q] Item under review: "O=c1[nH]c2ccccc2c(O)c1O" . Reported solubility kinetic?
[A] > 26.6 µg/mL

[Q] Entry "Nc1c(C(=O)N2CCCC2)sc2nc(-c3ccccc3)ccc12" : reported solubility kinetic = ?
[A] 2.1 µg/mL

[Q] What value of solubility kinetic has been recorded for this entry: "COCc1nc2ccccc2n1CCc1ccccc1"
[A] > 40 µg/mL

[Q] Requested field: solubility kinetic. Item: "Cc1ccc(NC(=O)C2CCN(C(=O)c3cccs3)CC2)c(C)c1"
[A] 36.6 µg/mL

[Q] Requested field: solubility kinetic. Item: "Cc1ccc(/C=N/NC(=O)c2ccc3nc[nH]c3c2)s1"
[A] > 42.7 µg/mL

[Q] solubility kinetic lookup needed for "CN(C)/C=C1\N=C(c2cccnc2Oc2ccc(Cl)cc2)OC1=O" , thanks.
[A] 1.6 µg/mL

[Q] What measured solubility kinetic goes with "Cl.O=C(CCN1CCOCC1)Nc1ccc(Cl)cc1" ?
[A] > 45.8 µg/mL

[Q] Endpoint output: solubility kinetic of "COc1ccc(OCCCC(=O)Nc2nc(C)c(C(C)=O)s2)cc1" . Value?
[A] 1.3 µg/mL

[Q] Could you share which solubility kinetic value was measured for "CCCNc1nc(Cl)nc(NC(C)(C)C)n1" ?
[A] 17.1 µg/mL

[Q] Fill in the blank: the reported solubility kinetic of "CCOc1ccccc1NC(=O)Nc1cccc(S(N)(=O)=O)c1" is ____.
[A] > 50.3 µg/mL

src = PubChem BioAssay AID1996
